- Measurement Description: First PK study: single oral dose, two formulations
- Type: in vivo, female Swiss Albino mice
- Test Parameters: Swiss Albino, mouse, plasma; single oral 5 mg/kg, Formulation 1, female mice; read-out: Tmax

{"Molecule": "COc1cc(N2CCNCC2)ccc1Nc1ncc2c(n1)-n1ccc(C(=O)Nc3c(C)cccc3C)c1CC2 [compound of formula (I)]", "Tmax [h]": 4}
